FYI, the data here is from ChEMBL document CHEMBL1136700.

- Test system: Aspergillus fumigatus
- Assay Overview: Minimum inhibitory concentration (MIC) to Aspergillus fumigatus after 48 hr
- Type: functional
- Study Conditions: Aspergillus fumigatus, 48 h; read-out: MIC
Value Type: MIC

Please review the entries below; each comes with its answer.
Molecule	Data Value
CC(C)CN1C[C@H](OCC23C[C@@H]4[C@H](C)CC[C@H]4C4(C=O)CC2C=C(C(C)C)[C@@]34C(=O)O)OC[C@H]1C	> 128 µg/mL
C=C(Br)CN1C[C@H](OCC23C[C@@H]4[C@H](C)CC[C@H]4C4(C=O)CC2C=C(C(C)C)[C@@]34C(=O)O)OC[C@H]1C	128 µg/mL
CC(C)=CCN1C[C@H](OCC23C[C@@H]4[C@H](C)CC[C@H]4C4(C=O)CC2C=C(C(C)C)[C@@]34C(=O)O)OC[C@H]1C	> 128 µg/mL
C=C(Cl)CN1C[C@H](OCC23C[C@@H]4[C@H](C)CC[C@H]4C4(C=O)CC2C=C(C(C)C)[C@@]34C(=O)O)OC[C@H]1C(F)(F)F	> 128 µg/mL
C=C(Cl)CON1C[C@H](OCC23C[C@@H]4[C@H](C)CC[C@H]4C4(C=O)CC2C=C(C(C)C)[C@@]34C(=O)O)OC[C@H]1C	> 128 µg/mL

**Q:** Using known records, supply MIC for C=C(C#N)CN1C[C@H](OCC23C[C@@H]4[C@H](C)CC[C@H]4C4(C=O)CC2C=C(C(C)C)[C@@]34C(=O)O)OC[C@H]1C
**A:** > 128 µg/mL

* * *

- Test system: Candida albicans
- Assay Overview: Minimum inhibitory concentration (MIC) to Candida albicans after 48 hr
- Format: functional
Entries and their measured MIC follow.

Below: 2 compounds and their reported MIC.
C=C(Cl)CN1C[C@H](OCC23C[C@@H]4[C@H](C)CC[C@H]4C4(C=O)CC2C=C(C(C)C)[C@@]34C(=O)O)OC[C@H]1CO 0.5 µg/mL
C=C(C)CN1C[C@H](OCC23C[C@@H]4[C@H](C)CC[C@H]4C4(C=O)CC2C=C(C(C)C)[C@@]34C(=O)O)OC[C@H]1C < 0.06 µg/mL

**Q:** // fetch MIC given entry CC(C)CN1C[C@H](OCC23C[C@@H]4[C@H](C)CC[C@H]4C4(C=O)CC2C=C(C(C)C)[C@@]34C(=O)O)OC[C@H]1C
**A:** < 0.06 µg/mL

* * *

- Tested on: Cryptococcus neoformans
- Assay Overview: Minimum inhibitory concentration against Cryptococcus neoformans after 48 hours
- Assay type: functional
Value Type: MIC (µg/mL)

A: C=C(Cl)CN1C[C@H](OCC23C[C@@H]4[C@H](C)CC[C@H]4C4(C=O)CC2C=C(C(C)C)[C@@]34C(=O)O)O[C@H](C)[C@H]1C
B: C=C(C#N)CN1C[C@H](OCC23C[C@@H]4[C@H](C)CC[C@H]4C4(C=O)CC2C=C(C(C)C)[C@@]34C(=O)O)OC[C@H]1C
**Q:** Pick one: A or B . Which one has the lower reported MIC? Your answer should be the label of the entry you select.
**A:** A

* * *

- Tested on: Cryptococcus neoformans
- Assay Overview: Minimum inhibitory concentration against Cryptococcus neoformans after 48 hours
- Type: functional
Value Type: MIC (µg/mL)

Solved cases below.
CC(C)C1=CC2CC3(C=O)[C@@H]4CC[C@@H](C)[C@H]4CC2(CO[C@H]2CN(C/C=C\Cl)[C@H](C)CO2)[C@]13C(=O)O 128
C=CC(=O)N1C[C@H](OCC23C[C@@H]4[C@H](C)CC[C@H]4C4(C=O)CC2C=C(C(C)C)[C@@]34C(=O)O)OC[C@H]1C 128

a: C=CCN1C[C@H](OCC23C[C@@H]4[C@H](C)CC[C@H]4C4(C=O)CC2C=C(C(C)C)[C@@]34C(=O)O)OC[C@H]1C
b: C=C(C)CN1C[C@H](OCC23C[C@@H]4[C@H](C)CC[C@H]4C4(C=O)CC2C=C(C(C)C)[C@@]34C(=O)O)OC[C@H]1C
c: C=C(Cl)CON1C[C@H](OCC23C[C@@H]4[C@H](C)CC[C@H]4C4(C=O)CC2C=C(C(C)C)[C@@]34C(=O)O)OC[C@H]1C
**Q:** Hey, can you sort those compounds up there by MIC, smallest first? Enter labels, ranked according to the request.
**A:** b, c, a

* * *

- Tested on: Aspergillus fumigatus
- Assay Overview: Minimum inhibitory concentration (MIC) to Aspergillus fumigatus after 48 hr
- Type: functional
- Study Conditions: Aspergillus fumigatus, 48 h; read-out: MIC
Value Type: MIC

Example results:
CC(C)C1=CC2CC3(C=O)[C@@H]4CC[C@@H](C)[C@H]4CC2(CO[C@H]2CN(CC4CC4)[C@H](C)CO2)[C@]13C(=O)O > 128 µg/mL
CC(C)C1=CC2CC3(C=O)[C@@H]4CC[C@@H](C)[C@H]4CC2(CO[C@H]2CN(S(=O)(=O)C4CC4)[C@H](C)CO2)[C@]13C(=O)O > 128 µg/mL

Consider the record given below.
**Q:** Give a short answer stating reported MIC for CC(C)C1=CC2CC3(C=O)[C@@H]4CC[C@@H](C)[C@H]4CC2(CO[C@H]2CN(CC=C(Cl)Cl)[C@H](C)CO2)[C@]13C(=O)O .
**A:** > 128 µg/mL

* * *

- System: Candida albicans
- Assay Overview: Minimum inhibitory concentration (MIC) to Candida albicans after 48 hr
- Format: functional
Value Type: MIC (µg/mL)

Compound	MIC, µg/mL
CC(C)C1=CC2CC3(C=O)[C@@H]4CC[C@@H](C)[C@H]4CC2(CO[C@H]2CN(C/C=C\Cl)[C@H](C)CO2)[C@]13C(=O)O	0.125
CC(C)C1=CC2CC3(C=O)[C@@H]4CC[C@@H](C)[C@H]4CC2(CO[C@H]2CN(CC=C(F)F)[C@H](C)CO2)[C@]13C(=O)O	0.125
C=C(Cl)CON1C[C@H](OCC23C[C@@H]4[C@H](C)CC[C@H]4C4(C=O)CC2C=C(C(C)C)[C@@]34C(=O)O)OC[C@H]1C	0.125
C=CC(=O)N1C[C@H](OCC23C[C@@H]4[C@H](C)CC[C@H]4C4(C=O)CC2C=C(C(C)C)[C@@]34C(=O)O)OC[C@H]1C	8
CC(C)C1=CC2CC3(C=O)[C@@H]4CC[C@@H](C)[C@H]4CC2(CO[C@H]2CN(C4C=CCCC4)[C@H](C)CO2)[C@]13C(=O)O (some centres not stated)	2
CC(C)=CCN1C[C@H](OCC23C[C@@H]4[C@H](C)CC[C@H]4C4(C=O)CC2C=C(C(C)C)[C@@]34C(=O)O)OC[C@H]1C	0.25

A: CC(C)C1=CC2CC3(C=O)[C@@H]4CC[C@@H](C)[C@H]4CC2(CO[C@H]2CN(S(=O)(=O)C4CC4)[C@H](C)CO2)[C@]13C(=O)O
B: CC(C)C1=CC2CC3(C=O)[C@@H]4CC[C@@H](C)[C@H]4CC2(CO[C@H]2CN[C@H](C)CO2)[C@]13C(=O)O
**Q:** When A and B are compared, which has the higher number for MIC? Which one? Tell me its label.
**A:** A

* * *

- Assay Overview: Total body clearance was determined
- Format: ADME, organism-based
- Study Conditions: in vivo
Value Type: clearance (mL/min/kg)

P: C=C(Cl)CN1C[C@H](OCC23C[C@@H]4[C@H](C)CC[C@H]4C4(C=O)CC2C=C(C(C)C)[C@@]34C(=O)O)O[C@H](C)C1
Q: C=C(Cl)CN1C[C@H](OCC23C[C@@H]4[C@H](C)CC[C@H]4C4(C=O)CC2C=C(C(C)C)[C@@]34C(=O)O)OC[C@H]1C
R: C=C(Cl)CN1C[C@H](OCC23C[C@@H]4[C@H](C)CC[C@H]4C4(C=O)CC2C=C(C(C)C)[C@@]34C(=O)O)OC[C@H]1C(C)C
**Q:** Order the entries by their reported clearance, beginning at the minimum. To answer, arrange all of the labels according to the requested order.
**A:** P, R, Q

* * *

- Assay Overview: Maximum plasma concentration was determined
- Type: ADME, organism-based
Value Type: Cmax (ng/mL)

I: C=C(Cl)CN1C[C@H](OCC23C[C@@H]4[C@H](C)CC[C@H]4C4(C=O)CC2C=C(C(C)C)[C@@]34C(=O)O)OC[C@H]1C(C)C
II: C=C(Cl)CN1C[C@H](OCC23C[C@@H]4[C@H](C)CC[C@H]4C4(C=O)CC2C=C(C(C)C)[C@@]34C(=O)O)OC[C@H]1C
**Q:** Response body: label of entry with the larger Cmax; valid values I , II . Write the label of whichever entry you select.
**A:** II
(II: 5950 ng/mL, I: 3880 ng/mL)

* * *

- Assay Overview: Half life period was measured upon oral administration (20 mg/kg)
- Type: ADME, organism-based
- Study Conditions: in vivo
Value Type: half-life (h)

A: C=C(Cl)CN1C[C@H](OCC23C[C@@H]4[C@H](C)CC[C@H]4C4(C=O)CC2C=C(C(C)C)[C@@]34C(=O)O)OC[C@H]1C(C)C
B: C=C(Cl)CN1C[C@H](OCC23C[C@@H]4[C@H](C)CC[C@H]4C4(C=O)CC2C=C(C(C)C)[C@@]34C(=O)O)OC[C@H]1C
**Q:** Consider A and B . Which of these has its half-life at a higher number? Reply with the label of the item you choose.
**A:** A
